# System: CAKI-1 renal
# MEASUREMENT PROTOCOL: NCI-60 one-dose screen, 48 h (100 = growth as untreated, 0 = no growth, -100 = all killed)
# ASSAY CONDITIONS: 10 µM unless noted
About 83,000 compounds went through this panel and 20% of them were active in at least one assay; those are over-represented in the sample as a whole. Active and inactive are the calls of the source. The calls were made as follows: active = growth percent below 10; inactive = the rest.
# growth listing for each entry below

For orientation, consider the following solved cases.
{"columns": ["COMPOUND", "growth"],
 "data": [
  ["CCN(Cc1ccc(Cl)c(Cl)c1)c1ccc2nc(N)nc(N)c2c1C", "-67% (active)"],
  ["COC(=O)c1ccccc1C(=O)c1c(C)cc(C)cc1C", "96.4% (inactive)"],
  ["Nc1ccc(F)cc1F", "94.7% (inactive)"]
]}

[in] Return growth (reported value) for this compound: FC(F)(F)c1cc(NC2=NCCN=C(Nc3cc(C(F)(F)F)cc(C(F)(F)F)c3)SS2)cc(C(F)(F)F)c1
[out] 48.1% (inactive)

[in] Determine its reported growth: Cn1c(=O)[nH]c2ccccc2c1=O
[out] 85.3% (inactive)

[in] Please supply the value of reported growth for the item O=c1n(CC2CO2)c(=O)n(CC2CO2)n1CC1CO1 (stereo unspecified)
[out] 28.6% (inactive)

[in] Please report growth for the following compound: CCCCCCCCCCCCSC1=C(Cl)C(=O)C(OC)=C(OC)C1=O
[out] 70.8% (inactive)

[in] Annotate the compound O=S(Cc1ccccc1)/C(=C/NC(=S)Nc1ccccc1)c1ccccc1 (stereo unspecified) with its measured growth.
[out] 94.8% (inactive)

[in] Query growth for Cc1ccc(O)c(N)c1
[out] 215% (inactive)

[in] Give the reported value of growth for this record: OC(CBr)CCBr (stereo unspecified)
[out] 92.4% (inactive)

[in] For the compound CC1CCC(C(C)(C)[N+](C)(C)C)CC1 (stereo unspecified) , give its measured growth value.
[out] 103% (inactive)

[in] Dear colleague, please send me the reported growth for S=C(NCc1ccccc1)N1CCC(CCCC2CCN(C(=S)NCc3ccccc3)CC2)CC1 when you can.
[out] 86.6% (inactive)

[in] Read the entry CC(C)OCC(CCl)OC(=O)Nc1ccccc1 (stereo unspecified) and write its reported growth.
[out] 98.2% (inactive)

[in] Item CCCOCc1cn[nH]n1 : provide growth
[out] 104% (inactive)

[in] Quote growth reported for COc1ccc2c(Cl)cc(NC(=O)Nc3c(C)cccc3C)nc2c1 please.
[out] 11.1% (inactive)

[in] # return recorded growth for entry Cc1ccc(C2CCCCC2)cc1Br
[out] 90.3% (inactive)

[in] Could you please provide reported growth for O=[N+]([O-])c1c(O)c(CNCCCO)cc(CNCCCO)c1O ? Thanks!
[out] 100% (inactive)

[in] Given the compound O=C1C=C(c2ccccc2)C(O)(c2ccccc2)C1 (stereo unspecified) , write its reported growth.
[out] 89.9% (inactive)

[in] Report measured growth; entry is O=C1C=C[C@H](O)[C@@]2(CO)O[C@@H]12
[out] 40% (inactive)

[in] State its growth for this compound: COC1=C(OC)C(=O)C(SC/C=C(\C)CCCC(C)CCCC(C)CCCC(C)C)=CC1=O (stereo unspecified)
[out] 102% (inactive)

---

# Tested on: SF-539 CNS
# MEASUREMENT PROTOCOL: NCI-60 one-dose screen, 48 h
# ASSAY CONDITIONS: 10 µM unless noted
This is part of a sample that, as a whole, favours compounds with a hit. Of some 83,000 tested, about 20% had one in any assay. The source made the active and inactive calls. How the source made its calls: active means growth percent below 10; inactive means the rest.
Entry note: the call must match one of true (active), false (inactive)

{"columns": ["MOLECULE", "CLASS NAME"],
 "data": [
  ["O=C(O)CCCCCNC(=O)OCc1ccccc1", "false"],
  ["Cc1ccc(Cc2ccc(C)cc2)cc1", "false"],
  ["Clc1ccc(-c2noc(/C=C\\c3ccccc3)n2)cc1", "false"],
  ["NC(CCl)=NCC12CC3CC(CC(C3)C1)C2", "true"],
  ["CC(C)NC(=O)OCc1c(COC(=O)NC(C)C)c(-c2ccc(Cl)cc2)n2c1CCC2", "false"],
  ["C=CCc1cc(OC)c(OC)c(OC)c1", "false"]
]}

[in] What did this assay record as the result for C=CC1=NC(C)(C)CC(C)O1 (stereo unspecified) ?
[out] false

[in] Per the assay record, what outcome was assigned to O=[N+]([O-])c1ccc2[nH]c(=S)n(/C=C(/c3ccc(Cl)cc3Cl)S(=O)(=O)Cc3ccc(Cl)cc3Cl)c2c1 ?
[out] false

[in] Hello, I am checking results. What call was entered for COC1C(=O)CCC2(CO2)C1(O)C1(C)OC1CCC(C)C (stereo unspecified) ?
[out] false

[in] Tell me the recorded outcome of this test for CCOC(=O)c1c(C)[nH]c(C)c1C=O .
[out] false

[in] Hi, do you know how N#C/C(=C\NC(=S)N=Nc1c(O)[nH]c2ccccc12)c1nc2ccccc2s1 came out in this test?
[out] false

[in] What did this assay record as the result for CCC(=O)Oc1c(C)cc(O)c2ccccc12 ?
[out] false

[in] What did this assay record as the result for CC(CC(CCC(=O)O)(c1ccccc1)c1ccccc1)N(C)C (stereo unspecified) ?
[out] false

[in] Assay result, entry C1C[S+]2CC[S+]1CC2 — outcome?
[out] false

[in] Which outcome was assigned to O=C(Nc1cccc(Cl)c1)c1ccc(Cl)cc1Cl in this test?
[out] false

[in] Returns: the outcome recorded for CC(=O)N(C)N=Nc1ccc(C)cc1 in this assay.
[out] false

[in] What outcome does the record of this test show for CCOC(=O)C1(N)CCCCC1 ?
[out] false

[in] Hi, sorry to bother you, what did the test record for CCOC(=O)CNC(=O)Sc1ccc(C(C)(C)C)cc1 ?
[out] false

---

molecules and their reported growth
# Test system: SF-268 CNS
# MEASUREMENT PROTOCOL: NCI-60 one-dose screen, 48 h (100 = growth as untreated, 0 = no growth, -100 = all killed)
# ASSAY CONDITIONS: 10 µM unless noted
The panel holds about 83,000 compounds, 20% with a hit somewhere; the sample as a whole holds those more often.
// note: answer is a bare numeric in %

{"columns": ["MOLECULE", "RECORDED VALUE"],
 "data": [
  ["COc1cccc(N=CNc2cccc(OC)c2)c1", 105],
  ["CC(C)c1ccc(C(=O)OCCCl)cc1", 112],
  ["C[C@H](CCC[C@H](C)OS(=O)(=O)c1ccccc1)OS(=O)(=O)c1ccccc1", 105],
  ["Cc1cc(Cl)cc(Cc2cc(Cl)cc(C)c2O)c1O", 15],
  ["CCCCCC#CC(=O)O", 110],
  ["CCN(CC)CCCC(C)NC(=S)N/N=C(\\C)c1ccccn1 (centres undefined)", 43.7],
  ["COC1=C(OC)C(=O)C(SC/C=C(\\C)CCCC(C)CCCC(C)CCCC(C)C)=CC1=O (centres undefined)", 28.7],
  ["CN(C)c1ccc2c(N(C)C)cc(N(C)C)nc2c1", 91.6]
]}

[in] Please give measured growth of the following entry: CC(=O)Nc1ccc(O)c(C)c1
[out] 100

[in] Please supply the value of reported growth for the item O=S(=O)(O)c1ccc(O)c(C2CCCCC2)c1
[out] 105

[in] Read off the recorded growth for O=C(O)c1cccc(-n2ncc(Cl)c(Cl)c2=O)c1
[out] 108

---

# System: COLO 205 colon
# MEASUREMENT PROTOCOL: NCI-60 one-dose screen, 48 h
# ASSAY CONDITIONS: 10 µM unless noted
The panel holds about 83,000 compounds, 20% with a hit somewhere; the sample as a whole holds those more often. Active and inactive are the calls of the source. Rule for the calls: active = growth percent below 10; inactive = the rest.
Please state which outcome applies, choosing from y for active, n for inactive

Example entries begin here.
{"columns": ["COMPOUND", "CLASS NAME"],
 "data": [
  ["O=CNCCc1ccccc1", "n"],
  ["O=C1C=C[C@H](O)[C@@]2(CO)O[C@@H]12", "y"],
  ["CCNc1ccc2ccccc2c1N=Nc1ccc(N=Nc2ccccc2)cc1", "n"],
  ["Cc1cc(C)cc(OCC(=O)O)c1", "n"],
  ["Cc1ccc(C)c(CN(C)C)c1O", "n"],
  ["Cc1ccc2nc(-c3ccc(N=Cc4ccccc4O)cc3)sc2c1", "n"]
]}

[in] Short answer needed: outcome of this test for CCCCCC#CC(=O)O ?
[out] n

[in] How did this test come out for O=C(O)CC1=CCCCC1 ?
[out] n

---

# Test system: MCF7 breast
# MEASUREMENT PROTOCOL: NCI-60 one-dose screen, 48 h (100 = growth as untreated, 0 = no growth, -100 = all killed)
# ASSAY CONDITIONS: 10 µM unless noted
The panel holds about 83,000 compounds, 20% with a hit somewhere; the sample as a whole holds those more often.
Recorded growth, one value per entry.
// return numeric value only (unit: %, not printed)

{"columns": ["COMPOUND", "REPORTED METRIC", "RECORDED VALUE"],
 "data": [
  ["CCCCc1ccc2nc(NC(=O)OC)[nH]c2c1", "growth", 12.8],
  ["CC(=O)OC(C)c1cccc(C#N)c1 (configuration not stated)", "growth", 101],
  ["COc1c(CNC(=O)CCl)cc2[nH]c(C)cc2c1CNC(=O)CCl", "growth", 36],
  ["O=C(O)c1cccc(-n2ncc(Cl)c(Cl)c2=O)c1", "growth", 74.8],
  ["Cc1ccc([N+](=O)[O-])c(C)n1", "growth", 96.2],
  ["CCOC(=O)c1cc(C)[nH]c(=O)c1C#N", "growth", 104]
]}

[in] Report growth for O=Cc1ccc(O)c(O)c1
[out] 96.5
